- TEST_TARGET: Recombinant human prolyl oligopeptidase (Homo sapiens)
- Sequence (P48147 whole entry): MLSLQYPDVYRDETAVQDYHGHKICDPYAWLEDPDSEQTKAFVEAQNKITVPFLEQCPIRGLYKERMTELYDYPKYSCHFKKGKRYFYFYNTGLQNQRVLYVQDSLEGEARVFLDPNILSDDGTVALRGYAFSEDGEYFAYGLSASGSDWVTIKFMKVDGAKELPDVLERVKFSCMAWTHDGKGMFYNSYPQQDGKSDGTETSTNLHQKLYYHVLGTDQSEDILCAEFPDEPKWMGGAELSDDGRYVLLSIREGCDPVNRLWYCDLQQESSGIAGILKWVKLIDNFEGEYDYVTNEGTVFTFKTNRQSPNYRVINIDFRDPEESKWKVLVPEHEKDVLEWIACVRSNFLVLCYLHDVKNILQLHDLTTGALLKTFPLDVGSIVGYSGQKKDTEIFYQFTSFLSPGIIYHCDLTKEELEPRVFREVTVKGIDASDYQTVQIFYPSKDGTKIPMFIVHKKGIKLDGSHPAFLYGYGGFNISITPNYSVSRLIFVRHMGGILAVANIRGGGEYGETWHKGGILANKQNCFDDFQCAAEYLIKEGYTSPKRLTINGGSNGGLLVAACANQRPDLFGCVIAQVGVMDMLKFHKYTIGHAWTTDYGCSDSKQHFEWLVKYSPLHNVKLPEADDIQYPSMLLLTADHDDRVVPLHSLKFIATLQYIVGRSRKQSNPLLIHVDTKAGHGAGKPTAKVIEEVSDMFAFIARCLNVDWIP
- ASSAY_COMMENT: Determination of IC50- and Ki-values of PEP-inhibitors, chromogenic substrate Cbz-Gly-L-Pro-pNA
- ASSAY_SETUP: 4 substrate and 7 inhibitor concentrations, competitive inhibition, pH 7.6, 30° C.
pKi: −log10 of the molar value.

MOLECULE: O=C(N[C@@H](Cc1ccccc1)C(=O)c1ccccc1)OCc1ccccc1
pKi: 5.80
--
MOLECULE: CC(C)(C)OC(=O)N[C@@H](Cc1ccccc1)C(=O)c1nccs1 [Example 26, 2-[Boc-L-Phe]Thiazole]
pKi: 4.28
--
MOLECULE: C[C@H](NC(=O)OCc1ccccc1)C(=O)c1nccs1 [Example 10, 2-[Cbz-L-Ala]Thiazole]
pKi: 5.64
--
MOLECULE: O=C(c1nc2ccccc2s1)[C@@H]1CCCN1C(=O)OCc1ccccc1 [Example 1, 2-[Cbz-L-Pro]Benzothiazole]
pKi: 6.01
--
MOLECULE: O=C(N[C@@H](Cc1ccccc1)C(=O)c1nccs1)OCc1ccccc1 [Example 5, 2-[Cbz-L-Phe]Thiazole]
pKi: 8.94
--
MOLECULE: CC(C)(C)OC(=O)N1CCC[C@H]1C(=O)c1nccs1 [Example 25, 2-[Boc-L-Pro]Thiazole]
pKi: 5.64
